Tested on: Klebsiella pneumoniae PCI 602
Test: Minimum Inhibitory Concentration (MIC), antibacterial spectrum in vitro
Assay type: cell-based
Settings: PCI602; Klebsiella pneumoniae PCI 602; read-out: Minimum Inhibitory Concentration (MIC)
Counter-ions that a name gives are not always drawn.
OBSERVED_PROPERTY: MIC (µg/mL)

CC1OC2C(NC(=O)C(=NOCC(=O)O)c3csc(N)n3)C(=O)N2C(C(=O)[O-])=C1CSc1cc[n+](CC(=O)O)cc1 (centres unmarked) [Compound 9, (Sodium Salt)] :: 0.1

(A) CC1OC2C(NC(=O)C(=NOC(C)(C)C(=O)O)c3csc(N)n3)C(=O)N2C(C(=O)[O-])=C1CSc1cc[n+](CC(=O)O)cc1 (centres unmarked) [Compound 5, (Sodium Salt)]
(B) CCON=C(C(=O)NC1C(=O)N2C(C(=O)[O-])=C(CSc3cc[n+](CC(=O)O)cc3)COC12)c1csc(N)n1 (centres unmarked) [Compound 12, (Sodium Salt)]
(C) CON=C(C(=O)NC1C(=O)N2C(C(=O)[O-])=C(CSc3cc[n+](CC(F)(F)F)cc3)C(C)OC12)c1csc(N)n1 (centres unmarked) [Compound 6]
(D) CCN1CCN(C(=O)NC(C(=O)NC2C(=O)N3C(C(=O)[O-])=C(CSc4cc[n+](CC(=O)O)cc4)COC23)c2csc(N)n2)C(=O)C1=O (racemic) [Compound 21, (Sodium Salt)]
[Q] hey, can you rank those molecules up there by MIC? biggest number first please Form entry: labels listed in requested order.
[A] A, C, D, B
(A: 0.39 µg/mL, C: 0.1 µg/mL, D: 0.05 µg/mL, B: 0.025 µg/mL)

---

System: Proteus morganii 1510
Assay: Minimum Inhibitory Concentration (MIC), antibacterial spectrum in vitro
Format: cell-based
Conditions: Morganella morganii; Proteus morganii 1510; read-out: Minimum Inhibitory Concentration (MIC)
Counter-ions that a name gives are not always drawn.
OBSERVED_PROPERTY: MIC (µg/mL)

CC1OC2C(NC(=O)C(=NOCC(=O)O)c3csc(N)n3)C(=O)N2C(C(=O)[O-])=C1CSc1cc[n+](CC(=O)O)cc1 (stereo not shown) [Compound 9, (Sodium Salt)] :: 0.78
CC1OC2C(NC(=O)C(=NOC(C)(C)C(=O)O)c3csc(N)n3)C(=O)N2C(C(=O)[O-])=C1CSc1cc[n+](C)cc1 (stereo not shown) [Compound 1, (Sodium Salt)] :: 0.39

(I) CON=C(C(=O)NC1C(=O)N2C(C(=O)[O-])=C(CSc3cc[n+](C)cc3)COC12)c1csc(N)n1 (stereo not shown) [Compound 10]
(II) CON=C(C(=O)NC1C(=O)N2C(C(=O)[O-])=C(CSc3cc[n+](CC(=O)O)cc3)COC12)c1csc(N)n1 (stereo not shown) [Compound 11, (Sodium Salt)]
(III) CCON=C(C(=O)NC1C(=O)N2C(C(=O)[O-])=C(CSc3cc[n+](CC(=O)O)cc3)C(C)OC12)c1csc(N)n1 (stereo not shown) [Compound 8, (Sodium Salt)]
(IV) CC1OC2C(NC(=O)C(=NOCC(=O)O)c3csc(N)n3)C(=O)N2C(C(=O)[O-])=C1CSc1cc[n+](CCF)cc1 (stereo not shown) [Compound 19, (Sodium Salt)]
[Q] Sort (4 compounds) by MIC: min first. Form entry: labels listed in requested order.
[A] IV, III, I, II
